- systemName: p300 HAT domain (residues 1287-1666) (Homo sapiens (Human), UniProt Q09472)
- Sequence (Q09472 1287-1666): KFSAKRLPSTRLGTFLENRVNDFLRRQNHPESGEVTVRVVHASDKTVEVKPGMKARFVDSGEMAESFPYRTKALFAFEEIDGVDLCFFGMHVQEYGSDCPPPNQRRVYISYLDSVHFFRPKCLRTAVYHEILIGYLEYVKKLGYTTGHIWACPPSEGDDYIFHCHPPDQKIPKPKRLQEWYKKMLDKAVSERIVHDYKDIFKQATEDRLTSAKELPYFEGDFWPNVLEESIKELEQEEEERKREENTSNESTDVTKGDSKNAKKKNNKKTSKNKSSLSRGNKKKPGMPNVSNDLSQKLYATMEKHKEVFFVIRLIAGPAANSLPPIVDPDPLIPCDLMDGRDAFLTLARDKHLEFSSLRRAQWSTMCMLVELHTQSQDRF
pIC50: −log10 of the molar value.
# reported pIC50; entries follow
attributeMeasured: pIC50

>>> result("CC(CNC(C(=O)Nc1ccc(-c2cnn(C3CCC3)c2)cn1)c1ccccc1)c1ccc(C#N)cc1 (single isomer, unassigned) [52 Isomer 2]")
"< 5.70"
>>> result("NS(=O)(=O)c1ccc(CCN[C@H](C(=O)N2CCc3ccccc32)c2ccccc2)cc1 (single isomer, unassigned) [153 Isomer 1]")
"< 4.22"
>>> result("Cc1nnc2n1CCN(c1ccc(NC(=O)C(NCCc3ccc(C#N)cc3)c3ccccc3)nc1)C2 (single isomer, unassigned) [60 Isomer 2]")
"< 5.70"

* * *

- systemName: p300 HAT domain (residues 1287-1666) (Homo sapiens (Human), UniProt Q09472)
pIC50: −log10 of the molar value.
attributeMeasured: pIC50

>>> result("Cc1cnc(-c2ccc(NC(=O)C(NCCc3ccc(C#N)cc3)c3ccccc3)cc2)[nH]1 (single isomer, unassigned) [11 Isomer 2]")
"< 5.30"
>>> result("CCCCCCc1ccc(C(NCCc2ccc(C#N)cc2)C(=O)Nc2ccc(-c3cnn(C)c3)cn2)cc1 (single isomer, unassigned) [121 racemic]")
"< 5.70"
>>> result("CC(CNC(C(=O)Nc1ccc(-c2cnn(C(F)F)c2)cn1)c1cnn(C)c1)c1ccc(C#N)cc1 (single isomer, unassigned) [128 Isomer 2]")
"< 5.70"

* * *

# reported pIC50; entries follow
- systemName: p300 HAT domain (residues 1287-1666) (Homo sapiens (Human), UniProt Q09472)
pIC50: −log10 of the molar value.
attributeMeasured: pIC50

>>> result("CC(CNC(C(=O)Nc1ccc(-c2cnn(C)n2)cn1)c1ccccc1)c1ccc(C#N)cc1 (single isomer, unassigned) [98 Isomer 3]")
"< 5.70"
>>> result("CO[C@@H]1CCN(c2ccc(NC(=O)C(NCC(C)c3ccc(C#N)cc3)c3ccccc3)nc2)C1 (single isomer, unassigned) [92 Isomer 3]")
6.22
>>> result("Cc1ccc(-c2ccc(NC(=O)C(NCC(C)c3ccc(C#N)cc3)c3ccccc3)nc2)nn1 (single isomer, unassigned) [15 Isomer 3]")
"< 5.70"
>>> result("CC(CNC(C(=O)Nc1ccc(-c2cnn(C)c2)cc1)c1ccccc1)c1ccc(Cl)cc1 (single isomer, unassigned) [2 Isomer 4]")
"< 5.30"
>>> result("O=C(Nc1ccc(-c2cccnn2)cc1)C(NCCc1ccc(Cl)cc1)c1ccccc1 (single isomer, unassigned) [10 Isomer 1]")
"< 5.30"
>>> result("COC1CN(c2ccc(NC(=O)C(NCC(C)c3ccc(C#N)cc3)c3ccccc3)nc2)C1 (single isomer, unassigned) [32 Isomer 4]")
"< 5.70"
>>> result("CO[C@@H]1CCN(c2ccc(NC(=O)C(NCC(C)c3ccc(C#N)cc3)c3ccccc3)nc2)C1 (single isomer, unassigned) [92 Isomer 4]")
"< 5.70"
>>> result("N#Cc1ccc(CCNC(C(=O)Nc2ccc(-c3cccnn3)cc2)c2ccccc2)cc1 (single isomer, unassigned) [12 Isomer 1]")
"< 5.30"
>>> result("COc1ccc(C(NCCc2ccc(C#N)cc2)C(=O)Nc2ccc(-c3cnn(C)c3)cn2)cc1 (single isomer, unassigned) [63 Isomer 2]")
"< 5.70"

* * *

// each record: one item and its IC50 for p300 HAT domain (residues 1287-1666) (Homo sapiens (Human))
attributeMeasured: IC50

>>> result("Cn1cc(-c2ccc(NC(=O)C(NCCc3ccc(C#N)cn3)c3ccccc3)nc2)cn1 (single isomer, unassigned) [142 Isomer 2]")
"210 nM"
>>> result("Cc1cn(-c2ccc(NC(=O)C(NCCc3ccc(C#N)cc3)c3ccccc3)nc2)nn1 (single isomer, unassigned) [78 Isomer 2]")
"> 2000 nM"
>>> result("Cn1cc(-c2ccc(NC(=O)C(NCCc3ccc(C#N)cc3)c3cccc(C(F)(F)F)c3)nc2)cn1 (single isomer, unassigned) [117 Isomer 2]")
"> 2000 nM"
>>> result("Cn1cc(-c2ccc(NC(=O)C(NCCc3ccc(Cl)cc3)c3ccccc3)nc2)cn1 (single isomer, unassigned) [55 Isomer 2]")
"> 5000 nM"
>>> result("CC(CNC(C(=O)Nc1ccc(-c2cnn(C)c2)cc1)c1ccccc1)c1ccc(C#N)cc1 (single isomer, unassigned) [82 Isomer 1]")
"> 5000 nM"
>>> result("Cn1cc(-c2ccc(NC(=O)C(NCCc3ccc(C#N)cc3)C3CCCCC3)nc2)cn1 (single isomer, unassigned) [89 Isomer 1]")
"> 2000 nM"

* * *

// each record: one item and its IC50 for p300 HAT domain (residues 1287-1666) (Homo sapiens (Human), UniProt Q09472)
attributeMeasured: IC50

>>> result("Cn1cc(-c2ccc(NC(=O)C(NCCc3ccc(C#N)cc3)c3cccc(C#N)c3)nc2)cn1 (single isomer, unassigned) [116 Isomer 2]")
"> 2 µM"
>>> result("Cn1cc(-c2cnc(NC(=O)C(NCCc3ccc(C#N)cc3)c3ccccc3)cc2F)cn1 (single isomer, unassigned) [74 Isomer 1]")
"> 2 µM"
>>> result("CC(Cc1ccc(Cl)cc1)NC(C(=O)Nc1ccc(-c2cnn(C)c2)cc1)c1ccccc1 (single isomer, unassigned) [3 Isomer 3]")
"> 5 µM"

* * *

- systemName: full length p300 (Homo sapiens (Human))
- Sequence (Q09472 whole entry): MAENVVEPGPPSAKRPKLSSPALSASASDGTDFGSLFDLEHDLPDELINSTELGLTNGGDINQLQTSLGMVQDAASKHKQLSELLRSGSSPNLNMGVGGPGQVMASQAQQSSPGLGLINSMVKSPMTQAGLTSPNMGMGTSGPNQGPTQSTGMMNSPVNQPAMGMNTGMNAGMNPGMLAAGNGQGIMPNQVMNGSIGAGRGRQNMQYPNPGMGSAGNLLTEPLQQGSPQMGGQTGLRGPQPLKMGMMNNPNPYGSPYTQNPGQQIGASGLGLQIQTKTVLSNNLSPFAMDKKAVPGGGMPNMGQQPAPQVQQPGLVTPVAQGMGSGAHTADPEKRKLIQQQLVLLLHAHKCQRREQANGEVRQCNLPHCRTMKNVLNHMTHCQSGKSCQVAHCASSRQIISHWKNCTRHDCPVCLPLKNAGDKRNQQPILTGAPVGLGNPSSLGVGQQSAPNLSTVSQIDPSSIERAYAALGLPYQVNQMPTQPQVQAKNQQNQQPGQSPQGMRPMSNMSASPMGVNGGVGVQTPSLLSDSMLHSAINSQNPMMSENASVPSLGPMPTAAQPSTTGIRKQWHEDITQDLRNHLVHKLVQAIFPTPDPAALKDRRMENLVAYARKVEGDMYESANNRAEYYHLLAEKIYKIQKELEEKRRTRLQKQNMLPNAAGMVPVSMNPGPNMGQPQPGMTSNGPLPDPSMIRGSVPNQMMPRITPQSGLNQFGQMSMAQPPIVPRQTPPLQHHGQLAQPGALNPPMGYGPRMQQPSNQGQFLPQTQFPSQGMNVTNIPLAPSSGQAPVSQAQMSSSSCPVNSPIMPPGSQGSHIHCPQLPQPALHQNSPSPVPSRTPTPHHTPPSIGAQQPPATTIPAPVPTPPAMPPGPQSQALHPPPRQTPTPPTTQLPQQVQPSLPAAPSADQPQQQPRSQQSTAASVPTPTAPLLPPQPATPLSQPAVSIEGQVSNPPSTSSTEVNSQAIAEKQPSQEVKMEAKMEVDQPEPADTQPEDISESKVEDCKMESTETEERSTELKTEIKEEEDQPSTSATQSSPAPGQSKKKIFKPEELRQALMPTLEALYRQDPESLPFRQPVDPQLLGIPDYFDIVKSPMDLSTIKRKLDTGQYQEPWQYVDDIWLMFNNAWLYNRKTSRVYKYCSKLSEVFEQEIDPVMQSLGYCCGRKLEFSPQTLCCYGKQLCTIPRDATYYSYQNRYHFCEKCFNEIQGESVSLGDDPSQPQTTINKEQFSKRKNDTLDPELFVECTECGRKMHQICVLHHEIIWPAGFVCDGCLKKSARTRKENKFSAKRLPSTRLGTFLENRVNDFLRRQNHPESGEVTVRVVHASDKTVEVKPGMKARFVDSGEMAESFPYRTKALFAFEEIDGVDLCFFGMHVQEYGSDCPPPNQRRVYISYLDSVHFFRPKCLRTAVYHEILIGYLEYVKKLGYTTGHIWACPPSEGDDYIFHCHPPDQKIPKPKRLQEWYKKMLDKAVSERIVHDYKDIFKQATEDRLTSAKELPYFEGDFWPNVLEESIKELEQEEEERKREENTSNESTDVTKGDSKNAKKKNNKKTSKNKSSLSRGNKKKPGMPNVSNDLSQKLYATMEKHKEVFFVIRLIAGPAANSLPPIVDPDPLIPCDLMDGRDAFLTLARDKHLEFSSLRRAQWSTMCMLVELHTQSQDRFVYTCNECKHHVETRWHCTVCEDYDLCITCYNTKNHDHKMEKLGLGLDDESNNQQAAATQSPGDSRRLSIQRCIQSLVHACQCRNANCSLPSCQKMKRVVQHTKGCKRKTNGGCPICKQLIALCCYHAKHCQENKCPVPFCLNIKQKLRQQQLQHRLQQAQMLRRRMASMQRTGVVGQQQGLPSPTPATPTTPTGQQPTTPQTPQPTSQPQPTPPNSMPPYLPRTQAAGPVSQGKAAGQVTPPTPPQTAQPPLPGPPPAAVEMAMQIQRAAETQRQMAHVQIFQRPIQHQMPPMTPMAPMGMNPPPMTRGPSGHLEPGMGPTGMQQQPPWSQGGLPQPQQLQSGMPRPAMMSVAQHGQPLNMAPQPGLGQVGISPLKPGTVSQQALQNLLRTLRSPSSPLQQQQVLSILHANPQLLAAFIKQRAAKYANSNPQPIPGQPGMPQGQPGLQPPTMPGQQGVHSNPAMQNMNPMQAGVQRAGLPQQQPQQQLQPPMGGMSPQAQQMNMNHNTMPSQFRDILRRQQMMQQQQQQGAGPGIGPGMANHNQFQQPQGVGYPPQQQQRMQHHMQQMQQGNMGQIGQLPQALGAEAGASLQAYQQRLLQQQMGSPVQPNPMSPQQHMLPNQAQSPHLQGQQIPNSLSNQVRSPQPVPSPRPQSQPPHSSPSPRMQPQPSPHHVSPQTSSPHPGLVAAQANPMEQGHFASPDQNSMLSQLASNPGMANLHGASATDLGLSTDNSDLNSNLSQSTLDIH
pIC50: −log10 of the molar value.
attributeMeasured: pIC50

>>> result("C[C@H](CNC(C(=O)Nc1ccc(-c2cnn(CC(=O)N(C)C)c2)cn1)c1cccc(F)c1)c1ccc(C#N)cc1 (single isomer, unassigned) [138 Isomer 2]")
"> 8.49"
>>> result("Cn1cc(-c2ccc3c(c2)CCN3C(=O)C(NCCc2ccc(C#N)cc2)c2ccccc2)cn1 (single isomer, unassigned) [152 Isomer 2]")
"> 8.70"
>>> result("Cc1ccn(-c2ccc(NC(=O)C(NCC(C)c3ccc(C#N)cc3)c3ccccc3)nc2)n1 (single isomer, unassigned) [61 Isomer 3]")
"> 8.70"

* * *

# reported IC50; entries follow
- systemName: p300 HAT domain (residues 1287-1666) (Homo sapiens (Human))
attributeMeasured: IC50

>>> result("N#Cc1ccc(CCNC(C(=O)Nc2ccc(N3CCC4(COC4)C3)cn2)c2ccccc2)cc1 (single isomer, unassigned) [96 Isomer 2]")
"> 2000 nM"
>>> result("Cc1ncc(-c2ccc(NC(=O)[C@@H](NC[C@H](C)c3ccc(C#N)cc3)c3ccccc3)nc2)cn1 (single isomer, unassigned; isomer 2) [6 Isomer 2]")
"> 2000 nM"
>>> result("Cn1cc(-c2ccc3c(c2)CCCN3C(=O)[C@@H](NCCc2ccc(C#N)cc2)c2ccccc2)cn1 (single isomer, unassigned) [151 Isomer 1]")
"> 5000 nM"

* * *

// each record: one item and its pIC50 for p300 HAT domain (residues 1287-1666) (Homo sapiens (Human), UniProt Q09472)
pIC50: −log10 of the molar value.
attributeMeasured: pIC50

>>> result("COc1cc(NC(=O)C(NCCc2ccc(C#N)cc2)c2ccccc2)ccc1-c1cnn(C)c1 (single isomer, unassigned) [25 Isomer 2]")
"< 5.30"
>>> result("CC(CNC(C(=O)Nc1ccc(-c2cnn(C3CCC3)c2)cn1)c1ccccc1)c1ccc(C#N)cc1 (single isomer, unassigned) [52 Isomer 4]")
"< 5.70"
>>> result("CC(CNC(C(=O)Nc1ccc(-c2cnn(C(F)F)c2)cn1)c1cnn(C)c1)c1ccc(C#N)cc1 (single isomer, unassigned) [128 Isomer 3]")
"< 5.70"
>>> result("CC(Cc1ccc(Cl)cc1)NC(C(=O)Nc1ccc(-c2cnn(C)c2)cc1)c1ccccc1 (single isomer, unassigned) [3 Isomer 2]")
"< 5.30"
>>> result("CC(Cc1ccc(Cl)cc1)NC(C(=O)Nc1ccc(-c2cnn(C)c2)cc1)c1ccccc1 (single isomer, unassigned) [3 Isomer 1]")
6.71

* * *

- systemName: p300 HAT domain (residues 1287-1666) (Homo sapiens (Human))
# reported IC50; entries follow
attributeMeasured: IC50 (nM)

>>> quantitativeresult("COc1ccccc1C(NCCc1ccc(C#N)cc1)C(=O)Nc1ccc(-c2cnn(C)c2)cn1 (single isomer, unassigned) [87 Isomer 1]")
264
>>> quantitativeresult("CC1CN(C)C(=O)CN1c1ccc(NC(=O)C(NC[C@@H](C)c2ccc(C#N)cc2)c2ccccc2)nc1 (single isomer, unassigned) [125 Isomer 1]")
1650

* * *

// each record: one item and its pIC50 for p300 HAT domain (residues 1287-1666) (Homo sapiens (Human))
pIC50: −log10 of the molar value.
attributeMeasured: pIC50

>>> result("CC(CNC(C(=O)Nc1ccc(N2CCN(C)C(=O)C2)cn1)c1ccccc1)c1ccc(C#N)cc1 (single isomer, unassigned) [101 Isomer 4]")
"< 5.70"
>>> result("CC(CNC(C(=O)Nc1ccc(N2CCN(C)C(=O)C2)cn1)c1cnn(C)c1)c1ccc(C#N)cc1 (single isomer, unassigned) [136 Isomer 1]")
"< 5.70"
>>> result("N#Cc1ccc(CCNC(C(=O)Nc2ccn(-c3ccccc3)n2)c2ccccc2)cc1 (single isomer, unassigned) [50 Isomer 2]")
"< 5.30"
>>> result("Cc1nn(C)c(C)c1-c1ccc(NC(=O)C(NC[C@@H](C)c2ccc(C#N)cc2)c2ccccc2)nc1 (single isomer, unassigned) [130 Isomer 1]")
"> 5.70"
>>> result("CC(CNC(C(=O)Nc1ccc(N2CCN(C)S2(=O)=O)cn1)c1ccccc1)c1ccc(C#N)cc1 (single isomer, unassigned) [108 Isomer 4]")
"< 5.70"
>>> result("C[C@H](CNC(C(=O)Nc1ccc(C2CC(=O)N(C)C2)cn1)c1ccccc1)c1ccc(C#N)cc1 (single isomer, unassigned) [109 Isomer 1]")
"< 5.70"
